# credit: ChEMBL document CHEMBL1130013

study-system: Voltage-dependent L-type calcium channel subunit alpha-1D (Rattus norvegicus)
Sequence (P27732 whole entry): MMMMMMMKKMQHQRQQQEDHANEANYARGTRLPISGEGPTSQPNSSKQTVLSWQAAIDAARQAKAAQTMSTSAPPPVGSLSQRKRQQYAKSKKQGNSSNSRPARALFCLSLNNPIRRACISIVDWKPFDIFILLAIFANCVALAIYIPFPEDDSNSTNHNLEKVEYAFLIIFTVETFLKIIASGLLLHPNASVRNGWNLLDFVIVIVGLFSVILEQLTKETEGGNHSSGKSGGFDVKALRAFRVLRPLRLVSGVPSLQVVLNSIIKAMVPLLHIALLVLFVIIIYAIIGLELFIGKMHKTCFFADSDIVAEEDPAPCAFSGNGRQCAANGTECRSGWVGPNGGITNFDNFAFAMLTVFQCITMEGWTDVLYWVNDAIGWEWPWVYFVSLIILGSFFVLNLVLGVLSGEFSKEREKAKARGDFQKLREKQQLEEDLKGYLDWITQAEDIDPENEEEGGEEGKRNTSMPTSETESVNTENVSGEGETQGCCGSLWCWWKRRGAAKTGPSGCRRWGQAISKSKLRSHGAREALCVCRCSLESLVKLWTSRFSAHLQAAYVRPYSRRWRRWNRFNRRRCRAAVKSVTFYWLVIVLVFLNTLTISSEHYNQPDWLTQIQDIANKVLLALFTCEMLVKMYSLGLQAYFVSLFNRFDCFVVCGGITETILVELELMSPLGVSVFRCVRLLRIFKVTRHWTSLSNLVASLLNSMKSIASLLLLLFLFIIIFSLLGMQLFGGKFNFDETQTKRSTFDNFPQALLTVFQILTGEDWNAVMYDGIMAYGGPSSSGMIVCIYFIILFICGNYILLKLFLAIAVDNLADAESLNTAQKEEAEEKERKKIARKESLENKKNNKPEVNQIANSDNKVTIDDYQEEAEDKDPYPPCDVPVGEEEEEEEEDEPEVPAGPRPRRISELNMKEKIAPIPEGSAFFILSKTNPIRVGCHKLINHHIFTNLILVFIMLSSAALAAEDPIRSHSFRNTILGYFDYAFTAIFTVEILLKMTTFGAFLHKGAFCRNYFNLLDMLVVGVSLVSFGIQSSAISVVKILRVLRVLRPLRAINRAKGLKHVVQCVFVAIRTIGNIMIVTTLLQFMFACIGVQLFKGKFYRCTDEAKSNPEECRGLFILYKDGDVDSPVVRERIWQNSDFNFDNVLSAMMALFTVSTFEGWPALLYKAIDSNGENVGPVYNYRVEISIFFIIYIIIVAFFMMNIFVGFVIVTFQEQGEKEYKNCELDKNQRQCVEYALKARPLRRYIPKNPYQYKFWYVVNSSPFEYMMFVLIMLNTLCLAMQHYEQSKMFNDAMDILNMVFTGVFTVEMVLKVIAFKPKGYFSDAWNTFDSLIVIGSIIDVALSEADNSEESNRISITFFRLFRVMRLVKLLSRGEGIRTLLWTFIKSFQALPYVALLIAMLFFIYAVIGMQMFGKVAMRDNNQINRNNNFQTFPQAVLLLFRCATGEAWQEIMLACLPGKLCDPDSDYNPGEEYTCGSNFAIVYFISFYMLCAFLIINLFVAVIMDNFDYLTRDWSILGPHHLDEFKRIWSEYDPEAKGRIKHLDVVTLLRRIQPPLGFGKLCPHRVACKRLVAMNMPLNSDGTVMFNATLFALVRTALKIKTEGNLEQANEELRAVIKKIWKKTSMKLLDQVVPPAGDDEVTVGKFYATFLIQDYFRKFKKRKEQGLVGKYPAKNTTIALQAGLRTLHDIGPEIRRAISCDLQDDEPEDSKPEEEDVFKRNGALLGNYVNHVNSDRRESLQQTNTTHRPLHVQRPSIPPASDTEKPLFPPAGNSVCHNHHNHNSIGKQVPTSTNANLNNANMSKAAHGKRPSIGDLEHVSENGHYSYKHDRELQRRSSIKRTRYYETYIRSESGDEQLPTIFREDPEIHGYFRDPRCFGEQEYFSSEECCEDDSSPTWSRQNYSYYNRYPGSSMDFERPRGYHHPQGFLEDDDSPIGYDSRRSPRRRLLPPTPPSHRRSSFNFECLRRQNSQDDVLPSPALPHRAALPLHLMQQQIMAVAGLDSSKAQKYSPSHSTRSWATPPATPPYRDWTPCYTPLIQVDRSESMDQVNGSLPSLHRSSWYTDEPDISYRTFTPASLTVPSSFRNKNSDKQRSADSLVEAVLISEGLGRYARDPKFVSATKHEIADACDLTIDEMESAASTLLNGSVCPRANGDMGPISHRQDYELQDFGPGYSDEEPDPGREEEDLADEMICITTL
experiment-summary: Inhibition of [3H]nitrendipine binding to L-type [Ca2+] channel in rat cortex homogenate, activity expressed as pIC50
Kindly state IC50 for each of the entries shown.
One number for each entry, in nM.

Clc1cccc2c1SC(c1ccccc1)(c1ccccc1)c1cccn1-2 | 316
COc1ccc([C@@H]2Sc3ccc(Cl)cc3-n3c(CN(C)C)ccc3[C@@H]2OC(C)=O)cc1 | 3.31
c1ccc(C2(c3ccccc3)Sc3ccccc3-n3cccc32)cc1 | 468
CCC(C)NCc1ccc2n1-c1ccccc1SC2C1=CCC(OC)(OC)C=C1 (stereo unspecified) | 12
COC1(OC)C=CC(C2(C3=CCC(OC)(OC)C=C3)Sc3ccccc3-n3cccc32)=CC1 | 5010

We next turn to a different molecule, shown below.
Can you share its IC50? I mean this molecule: CN(C)Cc1ccc2n1-c1ccccc1SC2c1ccccc1 (stereo unspecified)
316
